# TESTED_TARGET: human vanilloid-1 (hVR1) (Homo sapiens)
# Sequence (Q8NER1 whole entry): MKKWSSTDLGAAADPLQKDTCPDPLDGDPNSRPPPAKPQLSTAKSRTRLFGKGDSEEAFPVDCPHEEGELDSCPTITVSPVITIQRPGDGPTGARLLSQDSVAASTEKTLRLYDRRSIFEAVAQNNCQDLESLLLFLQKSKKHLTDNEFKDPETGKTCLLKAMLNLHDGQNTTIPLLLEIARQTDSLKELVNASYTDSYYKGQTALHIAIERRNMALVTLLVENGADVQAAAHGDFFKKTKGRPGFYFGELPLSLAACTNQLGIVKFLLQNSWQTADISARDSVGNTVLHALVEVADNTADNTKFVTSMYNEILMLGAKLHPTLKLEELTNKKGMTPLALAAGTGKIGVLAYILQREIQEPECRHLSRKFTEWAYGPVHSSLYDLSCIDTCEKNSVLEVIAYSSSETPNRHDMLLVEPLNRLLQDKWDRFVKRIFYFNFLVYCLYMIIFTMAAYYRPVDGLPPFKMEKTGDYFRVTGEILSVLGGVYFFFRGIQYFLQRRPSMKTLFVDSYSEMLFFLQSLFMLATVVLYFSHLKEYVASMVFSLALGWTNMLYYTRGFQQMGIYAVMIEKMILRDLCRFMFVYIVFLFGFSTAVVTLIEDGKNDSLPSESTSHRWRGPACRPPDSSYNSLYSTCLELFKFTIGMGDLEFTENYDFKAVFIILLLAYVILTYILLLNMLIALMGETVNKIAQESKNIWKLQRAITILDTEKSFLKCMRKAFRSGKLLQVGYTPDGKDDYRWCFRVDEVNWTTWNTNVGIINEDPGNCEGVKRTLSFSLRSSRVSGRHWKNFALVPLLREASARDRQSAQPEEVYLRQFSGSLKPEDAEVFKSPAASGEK
# METHOD: Calcium influx of vanilloid receptor in hVR1-HEK293 cells (capsaicin-induced, Fluo-3/AM)
# STUDY_CONDITIONS: 1 μM capsaicin-induced intracellular calcium influx, read-out: Inhibitory Activity IC50
pIC50: −log10 of the molar value.
EXPERIMENTAL_ENDPOINT: pIC50

[[record]]
compound_structure_string = "FC(F)(F)c1cc(Br)c2nc(-c3ccc(-c4nccc(C(F)(F)F)n4)cc3)[nH]c2c1"
data_value = 7.66

[[record]]
compound_structure_string = "FC(F)(F)c1cc(Cl)c2nc(-c3ccc(-c4ncccc4Cl)cn3)[nH]c2c1"
data_value = 7.80

[[record]]
compound_structure_string = "FC(F)(F)c1cc(Br)c2nc(-c3ccc(-c4ncccc4C(F)(F)F)cn3)[nH]c2c1"
data_value = 8.05

[[record]]
compound_structure_string = "CC(C)(C)c1ccc2nc(-c3ccc(-c4ncccc4C(F)(F)F)cn3)[nH]c2c1"
data_value = 5.40

[[record]]
compound_structure_string = "FC(F)(F)c1ccc2nc(-c3ccc(-c4ncccc4Cl)cc3)[nH]c2c1"
data_value = 6.89

[[record]]
compound_structure_string = "CC(C)(C)c1ccc2nc(-c3ccc(-c4ncccc4Cl)cc3F)[nH]c2c1"
data_value = 6.91

[[record]]
compound_structure_string = "FC(F)(F)c1ccc2nc(-c3ccc(-c4ncccc4C(F)(F)F)cc3Cl)[nH]c2c1"
data_value = 6.19

[[record]]
compound_structure_string = "CC(C)(C)c1ccc2nc(-c3ccc(-c4ncc(Cl)cc4Cl)c(Cl)c3)[nH]c2c1"
data_value = 6.50

